Target: human full-length MKNK1 (Homo sapiens, UniProt Q9BUB5, T385D)
Sequence (Q9BUB5 1-424 isoform Q9BUB5-2 T344D): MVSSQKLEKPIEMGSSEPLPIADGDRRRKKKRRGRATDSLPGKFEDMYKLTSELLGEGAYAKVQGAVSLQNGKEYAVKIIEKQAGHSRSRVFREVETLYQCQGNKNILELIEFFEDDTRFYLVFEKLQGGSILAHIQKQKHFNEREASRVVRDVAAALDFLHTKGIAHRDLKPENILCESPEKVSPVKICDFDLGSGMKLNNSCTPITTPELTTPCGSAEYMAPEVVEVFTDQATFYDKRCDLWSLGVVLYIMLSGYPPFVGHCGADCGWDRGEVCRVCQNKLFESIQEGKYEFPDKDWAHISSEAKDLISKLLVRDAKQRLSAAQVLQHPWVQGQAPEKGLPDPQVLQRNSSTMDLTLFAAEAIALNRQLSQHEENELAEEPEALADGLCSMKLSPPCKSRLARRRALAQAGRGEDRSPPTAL
Assay: MKNK1 kinase high ATP assay (TR-FRET)
Conditions: high ATP (2 mM), 15 min preincubation with enzyme, GST-MKNK1 (T344D)
Method: MKNK1-inhibitory activity at high ATP of compounds of the present invention after their preincubation with MKNK1 was quantified employing the TR-FRET-based MKNK1 high ATP assay as described in the following paragraphs. […]
pIC50: −log10 of the molar value.
measurement-name: pIC50

compound	pIC50
CCNC(=O)C1CCc2[nH]c3ncnc(Nc4ccccc4OC4CCCC4)c3c2C1 (racemic)	7.06

(a) CS(=O)(=O)CCCNC(=O)C1CCc2[nH]c3ncnc(Nc4ccccc4OCC4CC4)c3c2C1 (racemic)
(b) CC(C)Oc1cc(F)ccc1Nc1ncnc2[nH]c3c(c12)CCC3
(c) CCOC(=O)C1CCc2[nH]c3ncnc(Nc4ccc(F)cc4OC(C)C)c3c2C1 (racemic)
Order by pIC50, ascending. Present the labels in the sequence the task asks for.
c, a, b
(c: 6.15, a: 6.72, b: 7.32)

====

target: human full-length MKNK1 (Homo sapiens, UniProt Q9BUB5, T385D); assay: MKNK1 kinase high ATP assay (TR-FRET); conditions: high ATP (2 mM), 15 min preincubation with enzyme, GST-MKNK1 (T344D)
measurement-name: IC50 (nM)

(P) CNC(=O)C1CCc2[nH]c3ncnc(Nc4ccccc4OC4CCCC4)c3c2C1 (racemic)
(Q) CCOC(=O)C1CCc2[nH]c3ncnc(Nc4ccc(Cl)c(Cl)c4)c3c2C1 (racemic)
(R) COc1ccc(C(F)(F)F)cc1Nc1ncnc2[nH]c3c(c12)CC(C(=O)NCCCS(C)(=O)=O)CC3 (racemic)
(S) Cc1ccc(Nc2ncnc3[nH]c4c(c23)CC(C(=O)NCCCS(C)(=O)=O)CC4)cc1S(=O)(=O)O (racemic)
Order the records so the highest IC50 appears first and the lowest last. Present the labels in the sequence the task asks for.
Q, S, P, R

====

target: human full-length MKNK1 (Homo sapiens, UniProt Q9BUB5, T385D); construct: purchased Carna Biosciences 02-145; host or cells: insect cells, baculovirus expression system; assay: MKNK1 kinase high ATP assay (TR-FRET); assay type: biochemical; conditions: high ATP (2 mM), 15 min preincubation with enzyme, GST-MKNK1 (T344D)
measurement-name: IC50 (nM)

compound	IC50, nM
CS(=O)(=O)CCCNC(=O)C1CCc2[nH]c3ncnc(Nc4ccc(F)c5[nH]c(=O)ccc45)c3c2C1 (racemic) [Example 82]	10500

(P) CNS(=O)(=O)c1ccc(Nc2ncnc3[nH]c4c(c23)CC(C(=O)NCCCS(C)(=O)=O)CC4)cc1 (racemic) [Example 41]
(Q) O=C(O)C1CCc2[nH]c3ncnc(Nc4ccc(F)cc4OCCO)c3c2C1 (racemic) [Example 182]
(R) COc1cc2[nH]ncc2cc1Nc1ncnc2[nH]c3c(c12)CC(C(=O)O)CC3 (racemic) [Example 184]
Order by IC50, ascending. Present the labels in the sequence the task asks for.
R, Q, P

(a) COCC1(OC)CCc2[nH]c3ncnc(Nc4ccc5[nH]c(=O)sc5c4)c3c2C1 (racemic) [Example 138]
(b) COCC1(OC)CCc2[nH]c3ncnc(Nc4ccc(F)cc4OC4CCCC4)c3c2C1 (racemic) [Example 134]
Returns the identifier with the smallest measured IC50 among a and b . Write down the label of the entry you select.
a
(a: 358 nM, b: 1650 nM)

====

molecular target: human full-length MKNK1 (Homo sapiens, UniProt Q9BUB5, T385D); assay: MKNK1 kinase high ATP assay (TR-FRET); conditions: high ATP (2 mM), 15 min preincubation with enzyme, GST-MKNK1 (T344D)
pIC50: −log10 of the molar value.
measurement-name: pIC50

Look over these answered cases.
compound	pIC50
COP(C)(=O)c1ccc(Nc2ncnc3[nH]c4c(c23)CC(C(=O)NCCCS(C)(=O)=O)CC4)cc1 (racemic) [Example 64]	4.71
CS(=O)(=O)CCCNC(=O)C1CCc2[nH]c3ncnc(Nc4cccc(-c5cnco5)c4)c3c2C1 (racemic) [Example 55]	6.29
COc1ccc(F)cc1Nc1ncnc2[nH]c3c(c12)CC(C(=O)NCCCS(C)(=O)=O)CC3 (racemic) [Example 39]	7.23
CC(C)Oc1ccc(Cl)cc1Nc1ncnc2[nH]c3c(c12)CC(C(=O)O)CC3 (racemic) [Example 234]	6.54

(I) CC1(C)Cc2cccc(Nc3ncnc4[nH]c5c(c34)CC(C(=O)NCCCS(C)(=O)=O)CC5)c2O1 (racemic) [Example 80]
(II) COc1cc(F)ccc1Nc1ncnc2[nH]c3c(c12)CC(C(=O)NCCCS(C)(=O)=O)CC3 (racemic) [Example 37]
Returns the identifier with the smallest measured pIC50 among I and II . Write down the label of the entry you select.
I

====

target: human full-length MKNK1 (Homo sapiens, UniProt Q9BUB5, T385D); test: MKNK1 kinase high ATP assay (TR-FRET); details: high ATP (2 mM), 15 min preincubation with enzyme, GST-MKNK1 (T344D)
measurement-name: IC50 (nM)

Look over these answered cases.
molecule	IC50 [nM]
CS(=O)(=O)CCCNC(=O)C1CCc2[nH]c3ncnc(Nc4ccc(F)c(OC(F)(F)F)c4)c3c2C1 (racemic)	782
O=C(O)C1CCc2[nH]c3ncnc(Nc4ccccc4N4CCOCC4)c3c2C1 (racemic)	911

(a) CCOC(=O)C1CCc2[nH]c3ncnc(Nc4ccccc4N4CCOCC4)c3c2C1 (racemic)
(b) CS(=O)(=O)CCCNC(=O)C1CCc2[nH]c3ncnc(Nc4cccc5c4CNC5=O)c3c2C1 (racemic)
So which one has the bigger IC50 here, a or b ? Write down the label of the entry you select.
b

Source: patent US20150133426A1
